Entry source: the supplement of paper PMC7877785

assay: self-splicing fitness, log relative to wild type (ln ratio); higher = more splicing; Tetrahymena group I intron in knt gene, E. coli kanamycin selection, DiMSum; sequences stand for … in CUCUCU…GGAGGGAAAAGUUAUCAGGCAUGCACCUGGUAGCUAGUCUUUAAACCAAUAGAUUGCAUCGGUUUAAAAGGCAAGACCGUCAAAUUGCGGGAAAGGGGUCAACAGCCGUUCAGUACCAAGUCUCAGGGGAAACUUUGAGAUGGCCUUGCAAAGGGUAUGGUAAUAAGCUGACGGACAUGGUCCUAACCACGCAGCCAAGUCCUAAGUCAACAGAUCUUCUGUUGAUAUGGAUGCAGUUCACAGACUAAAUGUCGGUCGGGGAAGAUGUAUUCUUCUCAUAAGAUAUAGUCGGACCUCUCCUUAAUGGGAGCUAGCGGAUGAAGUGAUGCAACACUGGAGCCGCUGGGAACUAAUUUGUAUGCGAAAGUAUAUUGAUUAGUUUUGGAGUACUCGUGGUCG; details: 37 °C;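 also: selection with 25 µg/mL kanamycin versus none on LB agar overnight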
Label rule, in plain words: self-splicing fitness (ln) of -1 and up is Satisfied, under -1 is Not satisfied.

Some solved entries appear below for comparison.
CACUAGCAAUAUUACGUUUU : Not satisfied
UGUAAGCAAUAUUACGCUUA : Not satisfied
ACGGAGCAAUAUUACGGGAC : Not satisfied

### Prompt State whether the measured self-splicing fitness (ln) reaches -1, counting equality as reaching it, for GCGCAGCAAUAUUACGAGCA
### Response Not satisfied

### Prompt State whether the measured self-splicing fitness (ln) reaches -1, counting equality as reaching it, for CAGUAGCAAUAUUACGCUCA
### Response Satisfied

### Prompt State whether the measured self-splicing fitness (ln) reaches -1, counting equality as reaching it, for GGCGAGCAAUAUUACGCGUA
### Response Satisfied

### Prompt State whether the measured self-splicing fitness (ln) reaches -1, counting equality as reaching it, for UUUCAGCAAUAUUACGAUCA
### Response Satisfied

====

assay: self-splicing fitness, log relative to wild type (ln ratio); higher = more splicing; Tetrahymena group I intron in knt gene, E. coli kanamycin selection, DiMSum; sequences stand for … in CUCUCU…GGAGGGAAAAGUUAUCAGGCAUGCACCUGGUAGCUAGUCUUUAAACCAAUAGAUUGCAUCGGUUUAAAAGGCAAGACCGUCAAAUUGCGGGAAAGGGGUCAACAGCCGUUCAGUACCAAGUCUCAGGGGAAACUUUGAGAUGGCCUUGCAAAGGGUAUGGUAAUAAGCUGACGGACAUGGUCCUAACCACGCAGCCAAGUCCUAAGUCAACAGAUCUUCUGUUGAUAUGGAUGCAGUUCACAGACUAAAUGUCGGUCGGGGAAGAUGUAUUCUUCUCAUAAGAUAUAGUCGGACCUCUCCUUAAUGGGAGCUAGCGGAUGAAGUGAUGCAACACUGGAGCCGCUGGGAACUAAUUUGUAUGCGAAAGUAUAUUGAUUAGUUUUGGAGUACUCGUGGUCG; conditions: 37 °C
Range-based classes on measured self-splicing fitness (ln): 1: < -2; 2: ≥ -2 and < -1; 3: ≥ -1

Some solved entries appear below for comparison.
UAACAGCAAUAUUACGAUGU : 1
GUCUAGCAAUAUUACGGCUC : 3
GAGGAGCAAUAUUACGCACA : 3
GCAAAGCAAUAUUACGCUCC : 1

### Prompt Kindly identify the class of GGAGAGCAAUAUUACGUCCG .
### Response 3

### Prompt Kindly identify the class of UAUUAGCAAUAUUACGUGAC .
### Response 2

### Prompt Kindly identify the class of UACGAGCAAUAUUACGACGA .
### Response 3

### Prompt Kindly identify the class of CCCCAGCAAUAUUACGACAA .
### Response 1
